# System: TGF-β induced [14C]-proline incorporation in rat mesangial cells
# assayName: [14C]-proline incorporation assay (collagen biosynthesis)
# Assay type: cell-based
# setupConditions: inhibition of TGF-β1 (1 ng/ml) induced [14C]-proline incorporation, IRMC cells, 44 hours
measureName: IC50 (µM)
Give just the number in µM; leave the unit off.

Asked: Give reported IC50 value for C#CCOc1ccc(/C=C/C(=O)Nc2ccccc2C(=O)O)cc1OC [FT011, reference compound]
Given back: 16

====

# assayName: MTS tetrazolium reduction cell viability assay
# setupConditions: rat, rat mesangial cells (1097/IRMC cells), TGF-β1 stimulated, CC50 (μM), vs 1% DMSO vehicle
Measured CC50 at 48 h accompanies every entry in the list below.
Your answer should be a plain number; it is taken to be in µM.

Sample records with CC50 at 48 h:
>>> measuredvalue("COCCOc1cc(/C=C/C(=O)Nc2ccccc2C(=O)O)ccc1OC")
276
>>> measuredvalue("C#CCOc1ccc(/C=C/C(=O)Nc2ccccc2C(=O)NCC2CCN(C)CC2)cc1OC")
29.2
>>> measuredvalue("C#CCOc1ccc(/C=C/C(=O)Nc2ccccc2C(=O)NCCc2ccncc2)cc1OC")
186
>>> measuredvalue("COc1cc(C2CC2C(=O)Nc2ccccc2Cl)ccc1OCC1COC1 (stereo not drawn)")
196
>>> measuredvalue("C#CCOc1ccc(/C=C/C(=O)Nc2ccccc2C#N)c(OCCN(C)C)c1OC")
26.5

Asked: Consider the molecule "COc1cc(/C=C/C(=O)Nc2ccccc2C(=O)O)ccc1OCC1CCNCC1" and give its recorded CC50 at 48 h.
Given back: 107

src = patent US11603349B2
